# assay summary: Metabolic stability in mouse liver microsomes assessed as parent compound remaining measured at 10 mins
# Type: ADME, microsome
# stated conditions: liver microsomes, read-out: Stability
test readout: remaining at 10 min (%)
Provide the reading as a plain figure in %.

Input: Look up and state reported remaining at 10 min for `Cc1snc(-c2ccc(Cl)cc2)c1COc1ccc(CCC(=O)O)c(C)c1C`
Output: 35

Input: Specify measured remaining at 10 min for `CCc1ccc(-c2snc(Cl)c2COc2ccc(CCC(=O)O)c(C)c2C)cc1` .
Output: 102

Input: Tell me its remaining at 10 min given `Cc1c(CCC(=O)O)ccc(OCc2csnc2-c2ccc(Cl)cc2)c1C` as the entry.
Output: 73

###

# tested target: UniProt Q12809
# assay summary: Inhibition of human ERG at 10 uM by patch express assay relative to control
test readout: inhibition at 10 µM (%)
Expressed in %, but write only the number.

Input: State its inhibition at 10 µM: `O=C(O)CCc1cc(F)c(OCc2c(-c3ccc(Cl)cc3F)nsc2C(F)(F)F)c(F)c1`
Output: 11.2

###

# assay summary: Half life in DIO C57bl/6J mouse at 20 mg/kg, po administered via gavage by LC-MS/MS analysis
# Assay type: ADME, organism-based
# stated conditions: in vivo
test readout: half-life (min)
Return type: number; implicit unit min.

Input: Specify half-life for `O=C(O)CCc1cc(F)c(OCc2c(-c3ccc(Cl)cc3F)nsc2C(F)(F)F)c(F)c1` and stop.
Output: 314

###

# assay summary: AUClast in DIO C57bl/6J mouse at 20 mg/kg, po administered via gavage by LC-MS/MS analysis
# Assay type: ADME, organism-based
# Set-up: dose 20 mg/kg, route oral, time 0 - last
# stated conditions: in vivo
test readout: AUC(0-t) (ng·h/mL)
Only the number, expressed in ng·h/mL, is required.

Input: Complete the entry with AUC(0-t) for `O=C(O)CCc1cc(F)c(OCc2c(-c3ccc(Cl)cc3F)nsc2C(F)(F)F)c(F)c1`
Output: 46800

###

# tested target: hERG (KCNH2) (Homo sapiens, UniProt Q12809)
# Sequence (Q12809 whole entry): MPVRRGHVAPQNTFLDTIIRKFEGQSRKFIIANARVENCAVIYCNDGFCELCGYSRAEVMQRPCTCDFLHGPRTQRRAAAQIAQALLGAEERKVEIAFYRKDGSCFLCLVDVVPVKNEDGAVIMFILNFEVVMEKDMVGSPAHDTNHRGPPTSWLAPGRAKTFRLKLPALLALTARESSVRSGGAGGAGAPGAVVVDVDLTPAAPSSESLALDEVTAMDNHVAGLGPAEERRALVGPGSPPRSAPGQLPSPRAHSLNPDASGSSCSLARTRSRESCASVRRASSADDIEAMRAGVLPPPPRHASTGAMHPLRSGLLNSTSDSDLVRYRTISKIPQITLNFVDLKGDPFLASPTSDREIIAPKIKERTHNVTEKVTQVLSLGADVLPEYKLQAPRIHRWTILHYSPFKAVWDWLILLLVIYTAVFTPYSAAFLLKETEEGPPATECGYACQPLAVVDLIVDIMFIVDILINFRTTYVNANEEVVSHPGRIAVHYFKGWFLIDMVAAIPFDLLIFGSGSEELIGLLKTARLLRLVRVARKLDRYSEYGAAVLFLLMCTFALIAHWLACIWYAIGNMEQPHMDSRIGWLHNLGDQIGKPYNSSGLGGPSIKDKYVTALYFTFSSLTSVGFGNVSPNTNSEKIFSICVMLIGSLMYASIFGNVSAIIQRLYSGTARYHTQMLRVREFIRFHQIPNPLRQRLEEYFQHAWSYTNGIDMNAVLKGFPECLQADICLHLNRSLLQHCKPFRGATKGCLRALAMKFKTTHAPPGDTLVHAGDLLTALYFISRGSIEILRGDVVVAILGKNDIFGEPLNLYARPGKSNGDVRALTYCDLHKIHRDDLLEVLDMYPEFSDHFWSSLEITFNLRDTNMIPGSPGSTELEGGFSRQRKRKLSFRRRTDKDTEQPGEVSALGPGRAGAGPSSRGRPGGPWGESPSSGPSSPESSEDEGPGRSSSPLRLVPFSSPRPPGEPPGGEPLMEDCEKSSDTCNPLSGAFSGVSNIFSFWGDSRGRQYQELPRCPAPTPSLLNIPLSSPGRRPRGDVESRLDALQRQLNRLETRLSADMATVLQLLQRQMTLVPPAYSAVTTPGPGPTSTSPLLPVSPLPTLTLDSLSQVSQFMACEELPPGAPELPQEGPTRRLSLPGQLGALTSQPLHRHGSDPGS
# assay summary: Inhibition of human ERG at 3 uM by patch express assay relative to control
test readout: inhibition at 3 µM
Write the quantity with the unit trailing the number.

Input: Kindly indicate its recorded inhibition at 3 µM. Item: `O=C(O)CCc1cc(F)c(OCc2c(-c3ccc(Cl)cc3F)nsc2C(F)(F)F)c(F)c1`
Output: 5.9%

###

# assay summary: Metabolic stability in human liver microsomes assessed as parent compound remaining measured at 10 mins
# Format: ADME, microsome
# stated conditions: read-out: Stability
Could you please report measured remaining at 10 min for the items listed next?
Your answer is read as %, so omit the unit and give the number.

Input: Report remaining at 10 min, nothing else, for this compound: `CCc1ccc(-c2snc(Cl)c2COc2ccc(CCC(=O)O)c(C)c2C)cc1`
Output: 76

Input: Read off the recorded remaining at 10 min for `Cc1snc(-c2ccc(Cl)cc2)c1COc1ccc(CCC(=O)O)c(C)c1C`
Output: 74

Input: Identify measured remaining at 10 min associated with `Cc1c(CCC(=O)O)ccc(OCc2c(-c3ccc(Cl)cc3)nsc2C(F)(F)F)c1C`
Output: 104

Input: Give the value of remaining at 10 min reported for the following: `Cc1c(CCC(=O)O)ccc(OCc2csnc2-c2ccc(Cl)cc2)c1C`
Output: 86

// data source = ChEMBL document CHEMBL4130453
